FYI, the data here is from BindingDB's records for doi:10.1016/s0960-894x(01)00758-2.

# EXPERIMENT_DESCRIPTION: Tested for binding affinity against kynureninase enzyme from bacterial cells
MEASUREMENT_NAME: pKi
For clarity, pKi is expressed as the negative log10 of concentration in mol/L.

Req: # input compound: NC(CC(O)c1cccc(O)c1)C(=O)O (stereo unspecified) ; wanted: its pKi
Resp: 5.00
